# ASSAYED_SYSTEM: Tyrosine-protein kinase CSK (Homo sapiens)
# COND: at 10 µM
List of residual activity values.
ATTRIBUTE_MEASURED: residual activity (%)

ITEM_SMILES	ASSAYED_SYSTEM	UNIT_OF_MEASURE	TEST_VALUE
O=C1NC(=O)c2cc(Nc3ccc(F)cc3)c(Nc3ccc(F)cc3)cc21	Tyrosine-protein kinase CSK (Homo sapiens)	%	93
CO[C@H]1C[C@@H]2CC[C@@H](C)[C@@](O)(O2)C(=O)C(=O)N2CCCC[C@H]2C(=O)O[C@H]([C@H](C)C[C@@H]2CC[C@@H](O)[C@H](OC)C2)CC(=O)[C@H](C)/C=C(\C)[C@@H](O)[C@@H](OC)C(=O)[C@H](C)C[C@H](C)/C=C/C=C/C=C/1C	Tyrosine-protein kinase CSK (Homo sapiens)	%	95
O=C1NC(=O)c2c1c1c3ccccc3[nH]c1c1[nH]c3cc(Br)ccc3c21	Tyrosine-protein kinase CSK (Homo sapiens)	%	84
Nc1n[nH]c2nnc(-c3c(-c4ccccc4)nn4ccccc34)cc12	Tyrosine-protein kinase CSK (Homo sapiens)	%	103
CC(C)n1cnc2/c(=N/c3cccc(Cl)c3)nc(NCCO)[nH]c21	Tyrosine-protein kinase CSK (Homo sapiens)	%	88
Oc1c2ccccc2c2c3c(cccc13)N=N2	Tyrosine-protein kinase CSK (Homo sapiens)	%	93
Cc1ccc(NC2=CC(=O)c3sc(C)nc3C2=O)cc1	Tyrosine-protein kinase CSK (Homo sapiens)	%	95
O=C1NC(=O)/C(=C\c2ccc3nccnc3c2)S1	Tyrosine-protein kinase CSK (Homo sapiens)	%	99
Cn1cnc2cc3c(Nc4cccc(Br)c4)ncnc3cc21	Tyrosine-protein kinase CSK (Homo sapiens)	%	97

---

# ASSAYED_SYSTEM: Cyclin-dependent kinase 1/cyclin B1 (Homo sapiens) (UniProt P06493+P14635)
# Sequence (P06493 whole entry, looked up): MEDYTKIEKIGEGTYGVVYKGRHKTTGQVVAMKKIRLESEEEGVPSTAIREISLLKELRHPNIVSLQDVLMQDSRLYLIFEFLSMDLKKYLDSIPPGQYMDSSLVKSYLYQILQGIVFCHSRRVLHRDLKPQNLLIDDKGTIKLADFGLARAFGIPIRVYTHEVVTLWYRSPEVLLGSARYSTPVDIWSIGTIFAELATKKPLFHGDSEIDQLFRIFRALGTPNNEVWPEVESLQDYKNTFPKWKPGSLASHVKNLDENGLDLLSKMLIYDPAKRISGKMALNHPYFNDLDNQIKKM
# Sequence (P14635 whole entry, looked up): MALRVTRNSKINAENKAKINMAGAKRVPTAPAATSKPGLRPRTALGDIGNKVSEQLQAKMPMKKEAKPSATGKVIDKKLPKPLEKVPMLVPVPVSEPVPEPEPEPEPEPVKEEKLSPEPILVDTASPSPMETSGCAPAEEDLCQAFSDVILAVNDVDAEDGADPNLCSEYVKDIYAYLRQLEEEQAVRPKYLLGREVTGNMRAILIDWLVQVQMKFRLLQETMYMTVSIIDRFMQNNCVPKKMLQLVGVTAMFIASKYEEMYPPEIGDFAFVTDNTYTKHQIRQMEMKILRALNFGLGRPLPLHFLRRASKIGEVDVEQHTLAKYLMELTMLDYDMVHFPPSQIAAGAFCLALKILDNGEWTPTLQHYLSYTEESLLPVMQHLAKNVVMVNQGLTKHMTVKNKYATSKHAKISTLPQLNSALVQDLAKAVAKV
# COND: at 1 µM
List of residual activity values.

ITEM_SMILES	ASSAYED_SYSTEM	residual activity [%]
Cc1cc(Nc2nc(-c3ccccc3)nc3ccccc23)n[nH]1	Cyclin-dependent kinase 1/cyclin B1 (Homo sapiens) (UniProt P06493+P14635)	97
CC(=O)c1ccc(N2CCOCC2)cc1O	Cyclin-dependent kinase 1/cyclin B1 (Homo sapiens) (UniProt P06493+P14635)	104
c1ccc(-c2n[nH]c3c2oc2ccccc23)cc1	Cyclin-dependent kinase 1/cyclin B1 (Homo sapiens) (UniProt P06493+P14635)	94
Oc1c2ccccc2c2c3c(cccc13)N=N2	Cyclin-dependent kinase 1/cyclin B1 (Homo sapiens) (UniProt P06493+P14635)	52

---

List of residual activity values.
# ASSAYED_SYSTEM: AMP-activated protein kinase (AMPK) alpha-1/beta-1/gamma-1 (Homo sapiens) (UniProt P54619+Q9Y478+Q13131)
# Sequence (P54619 whole entry): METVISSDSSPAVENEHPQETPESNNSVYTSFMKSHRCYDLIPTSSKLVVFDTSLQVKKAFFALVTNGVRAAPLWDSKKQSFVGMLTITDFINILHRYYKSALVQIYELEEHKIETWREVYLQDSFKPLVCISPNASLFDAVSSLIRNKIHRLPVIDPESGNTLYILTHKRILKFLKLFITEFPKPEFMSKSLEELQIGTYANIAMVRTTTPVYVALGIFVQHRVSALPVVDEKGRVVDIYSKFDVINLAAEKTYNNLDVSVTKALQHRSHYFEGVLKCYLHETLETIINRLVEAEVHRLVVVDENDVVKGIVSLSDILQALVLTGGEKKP
# Sequence (Q13131 whole entry partner): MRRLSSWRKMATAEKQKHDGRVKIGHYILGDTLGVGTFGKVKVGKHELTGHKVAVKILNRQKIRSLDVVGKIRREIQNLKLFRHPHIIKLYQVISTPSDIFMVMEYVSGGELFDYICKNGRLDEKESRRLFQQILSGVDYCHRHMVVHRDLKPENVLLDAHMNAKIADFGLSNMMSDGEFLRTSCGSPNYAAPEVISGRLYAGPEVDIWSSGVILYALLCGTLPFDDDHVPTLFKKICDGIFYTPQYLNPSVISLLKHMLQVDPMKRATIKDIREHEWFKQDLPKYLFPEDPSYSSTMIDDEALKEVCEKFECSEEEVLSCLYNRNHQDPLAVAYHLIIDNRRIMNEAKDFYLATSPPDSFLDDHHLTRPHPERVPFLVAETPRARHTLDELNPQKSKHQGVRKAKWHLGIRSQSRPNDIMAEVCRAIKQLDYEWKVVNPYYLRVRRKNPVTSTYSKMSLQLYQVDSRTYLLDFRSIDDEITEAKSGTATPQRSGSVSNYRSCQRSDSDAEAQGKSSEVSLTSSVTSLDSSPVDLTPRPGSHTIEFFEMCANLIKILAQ
# Sequence (Q9Y478 2-270 partner limits assumed): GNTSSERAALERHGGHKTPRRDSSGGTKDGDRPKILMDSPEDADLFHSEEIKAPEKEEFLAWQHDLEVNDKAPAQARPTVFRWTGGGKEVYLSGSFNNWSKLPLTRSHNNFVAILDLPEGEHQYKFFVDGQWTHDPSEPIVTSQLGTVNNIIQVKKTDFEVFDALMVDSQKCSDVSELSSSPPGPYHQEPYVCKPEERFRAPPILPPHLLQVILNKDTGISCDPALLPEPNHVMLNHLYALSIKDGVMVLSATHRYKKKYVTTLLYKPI
# COND: at 1 µM

ITEM_SMILES	UNIT_OF_MEASURE	residual activity
N#CCCc1ccc2c(c1)-c1[nH]c3ccc([N+](=O)[O-])cc3c1CC(=O)N2	%	57
COc1cc2ncc(-c3ccccc3)nc2cc1OC	%	86
COc1cc2ncnc(N3CCN(C(=O)Nc4ccc(Oc5ccccc5)cc4)CC3)c2cc1OC	%	79
CNc1cc2c(Nc3cccc(Br)c3)ncnc2cn1	%	100
CC(=O)c1ccc(N2CCOCC2)cc1O	%	102
Cc1ccc(NC2=CC(=O)c3sc(C)nc3C2=O)cc1	%	88
COc1cccc(-c2cc(=O)c3ccccc3o2)c1N	%	101
O=C1Nc2ccc(Br)cc2/C1=C\c1cc2c([nH]1)CCCC2	%	76
Cn1cc(/C=C2\C(=O)Nc3ccc(S(N)(=O)=O)cc32)c2ccccc21	%	9
Cc1cccc(-c2[nH]c(C(C)(C)C)nc2-c2ccc3c(c2)OCO3)n1	%	102
N#C/C(=C(\N)Sc1ccc(N)cc1)c1ccccc1C(F)(F)F	%	75
CN(C)c1ccc(/C=C2\C(=O)Nc3ccccc32)cc1	%	92
Cn1cnc2cc3c(Nc4cccc(Br)c4)ncnc3cc21	%	90
CN(C)CCCn1cc(C2=C(c3c[nH]c4ccccc34)C(=O)NC2=O)c2ccccc21	%	44
Cc1nc(-c2ccccc2)c(-c2ccncc2)o1	%	105
COc1ccc(S(=O)(=O)N(CCO)c2ccccc2CN(C)C/C=C/c2ccc(Cl)cc2)cc1	%	104
COc1cc2ncnc(Nc3ccc(O)c(Br)c3)c2cc1OC	%	82
CCN(CC)C(=O)c1ccc(Nc2nc(OCC3CCCCC3)c3nc[nH]c3n2)cc1	%	35
Oc1ccc(Nc2nc(-c3ccc(Cl)cc3)cs2)cc1	%	105
CCOc1cc2ncnc(Nc3cccc(Br)c3)c2cc1OCC	%	84
CC(C)n1cnc2/c(=N/c3cccc(Cl)c3)nc(NCCO)[nH]c21	%	76
Nc1n[nH]c2nnc(-c3c(-c4ccccc4)nn4ccccc34)cc12	%	90
O=Nc1c(-c2c(O)[nH]c3ccccc23)[nH]c2ccccc12	%	2
O=C1Nc2cc(Br)ccc2/C1=C1/Nc2ccccc2/C1=N\O	%	2
COc1ccc(OC)c2c(=S)c3ccccc3[nH]c12	%	90
